# Tested on: U2OS
# method.summary: cell viability relative to DMSO; higher = less toxic
# cond: 72 h; 1 nM
quantity.name: cell viability (%)

- CC(N)C12CC3CC(CC(C3)C1)C2 (centres undefined): 95.3
- CCC(=O)NCC[C@@H]1CCc2ccc3c(c21)CCO3: 99.5
- CCC[C@@H](NC(=O)N1C(=O)C(CC)(CC)[C@@H]1Oc1ccc(C(=O)N2CCN(C)CC2)cc1)c1ccc2c(c1)OCO2: 93.7
- O=C(O)C(Cl)Cl [dichloroacetate]: 104
- CCCn1c(=O)c2[nH]cnc2n(-c2ccc(Cl)cc2)c1=O: 103
- CCN1C[C@H](C)n2c(c(O)c3c(=O)n(Cc4ccc(F)c(Cl)c4)nc(C(=O)NC)c32)C1=O: 101
- C/C(=C\C(N)C(=O)O)CP(=O)(O)O (centres undefined): 101
- C[C@H]1CCc2c(cc(Br)c(F)c2Br)N1C=O: 98.3
- O=C(NCc1ccncc1)C12CC3CC(C1)CC(c1ccc(Cl)cc1)(C3)C2: 97.4

----------
# Test system: Calu-3
# method.summary: relative viability EC50 (midpoint between 100% and the lowest measured viability); higher = less toxic
# cond: 72 h
Here the recorded relative viability EC50 is given for each entry.
quantity.name: relative viability EC50

- COc1ccc2cccc(CCNC(C)=O)c2c1: > 10 µM
- C#Cc1cnc2nc(O)n(C(CC)CC)c2n1: > 10 µM
- CCCCc1ccc(O)cc1O: > 10 µM
- CC#CCC(C)[C@H](O)/C=C/[C@@H]1[C@H]2C/C(=C/CCCC(=O)O)C[C@H]2C[C@H]1O (some centres undefined): > 10 µM
- CN(C(=O)c1ccc(F)cc1C(F)(F)F)C1CCN(c2nnc(-c3ccnn3C)c3ccccc23)CC1: > 10 µM
- Cc1ccc2c(=O)c3cccc(CC(=O)O)c3oc2c1C: > 10 µM
- c1ccc2c(-c3cnn4cc(-c5ccc(N6CCNCC6)cc5)cnc34)ccnc2c1: 2.69 µM
- CC(C)OC(=O)c1cc2c(OC[C@@H](O)CNC(C)(C)C)cccc2[nH]1: > 10 µM
- CN1C(=O)N[C@H](Cc2c[nH]c3c(Cl)cccc23)C1=O: > 10 µM
- Cn1c(C#N)ccc1-c1ccc2c(c1)C(C)(C)OC(=S)N2: > 10 µM
- Cn1ncc2c(N3CCOCC3)nc(-c3cccc(O)c3)nc21: 1.64 µM
- CC1/C=C/C=C/C=C/C=C/C=C/C=C/C=C/C(OC2O[C@H](C)[C@@H](O)[C@H](N)[C@@H]2O)CC(O)C(C(=O)O)C(O)CC(=O)CC(O)CC(O)CC(O)CC(=O)CCCC(=O)CC(=O)OC1C(C)CC(C)C(O)CC(=O)c1ccc(N)cc1 (some centres undefined): > 10 µM
- COC(=O)[C@H](CC(C)C)NC(=O)[C@@H](N)CC(C)C: > 10 µM
- CN[C@@H](C)CC1CCCCC1: > 10 µM
- CN1CCC(CNc2ccc3ncc(-c4cccc(OC(F)(F)F)c4)n3n2)CC1: 2.09 µM
- C[C@]12CCC(=O)C[C@@H]1CC[C@@H]1[C@@H]2CC[C@]2(C)C=CC[C@@H]12: > 10 µM
- O=C(COc1ccc(Cl)cc1)N1CCN(Cc2ccc3c(c2)OCO3)CC1 [fipexide]: > 10 µM
- Cc1c(C)c2c(c(C)c1O)CCC(C)(C(=O)O)O2 (centres undefined): > 10 µM
- Nc1[nH]cnc2ncnc1-2: > 10 µM

----------
# Test system: U2OS
# method.summary: cell viability relative to DMSO; higher = less toxic
# cond: 72 h; 100 nM
quantity.name: cell viability (%)

- CC1(C)CCC(C)(C)c2cc(C#Cc3ccc(C(=O)O)cc3)ccc21 [EC-23]: 98.4
- N#C/C(=C\c1ccc(O)cc1)C(=O)O [CHC]: 97.6
- CS(=O)(=O)Nc1ccc(-c2coc3cc(OCc4cccc(C(=O)O)c4)ccc3c2=O)cc1: 107

----------
Here the recorded cell viability is given for each entry.
# System: Vero E6
# method.summary: cell viability relative to DMSO; higher = less toxic
# cond: 72 h; 10 nM
quantity.name: cell viability (%)

* Cc1cc(C)c(Nc2ccnc(Nc3ccc(C#N)cc3)n2)c(C)c1 [dapivirine] | 101
* NC(CO)(CO)CO [trometamol] | 98.6
* CC#CCC(C)[C@H](O)/C=C/[C@@H]1[C@H]2C/C(=C/CCCC(=O)O)C[C@H]2C[C@H]1O (some centres not stated) [iloprost] | 101
* Nc1ccn([C@@H]2CS[C@H](CO)O2)c(=O)n1 [lamivudine] | 105
* C=C[C@]1(C)C[C@@H](OC(=O)CS[C@@H]2C[C@H]3CC[C@@H](C2)N3C)[C@]2(C)[C@H](C)CC[C@]3(CCC(=O)[C@H]32)[C@@H](C)[C@@H]1O [retapamulin] | 101
* O=C1c2c(O)cc(O)cc2O[C@H](c2ccc(O)c(O)c2)[C@H]1O [taxifolin] | 99.4
* CC1(C)CCC(C)(C)c2cc(C#Cc3ccc(C(=O)O)cc3)ccc21 [EC-23] | 99.6
* CC(C)[C@H](NS(=O)(=O)c1ccc(-c2ccc(Br)cc2)cc1)C(=O)O | 95.9
* O=C(COc1cccc2c(=O)[nH]ccc12)c1ccccc1 [UPF-1069] | 108
* COC[C@@H](NC(C)=O)C(=O)NCc1ccccc1 [Lacosamide] | 97.4
* CNC(=O)ON(C(C)=O)C(=O)NC [caracemide] | 96.9
* COc1cc2c(cc1OC)CC(=O)N(CCCN(C)C[C@H]1Cc3cc(OC)c(OC)cc31)CC2 [ivabradine] | 99.7
* O=C(O)Cc1cccc(OCCCN(Cc2cccc(C(F)(F)F)c2Cl)CC(c2ccccc2)c2ccccc2)c1 [GW-3965] | 98.8
* NC(=O)OCC(COC(N)=O)c1ccccc1 [felbamate] | 89.8
* O=C(NN1C(=O)[C@@H]2[C@@H]3C=C[C@@H]([C@H]4C[C@@H]34)[C@@H]2C1=O)c1ccc(C(F)(F)F)cc1 [tecovirimat] | 104
* N[C@@H](C(=O)O)c1cc(O)cc(O)c1 [dihydroxyphenylglycine] | 97.5
* CCn1cc(C(=O)O)c(=O)c2cc(F)c(N3CCN(C)CC3)cc21 [pefloxacin] | 101
* O=C(O)CCCCC(CCSCc1ccccc1)SCc1ccccc1 (configuration not stated) [CPI-613] | 94.8
* CC1=C(CC(=O)O)c2cc(F)ccc2/C1=C\c1ccc([S+](C)[O-])cc1 (configuration not stated) [sulindac] | 102
* O=C(O)C1=CCNCC1 [isoguvacine] | 103
* CNCCCCOc1ccccc1Cc1ccccc1 [bifemelane] | 102
* C/C(=C\c1ccc(C(=O)O)cc1)c1ccc2c(c1)C(C)(C)CCC2(C)C [TTNPB] | 102
* CNC(=O)O[C@H]1COc2ccc(N3CCN(C4COC4)CC3)cc2[C@@H]1NC(=O)c1ccc(F)cc1 | 98.2
* CCOc1ccc(Cc2cc([C@@H]3O[C@H](SC)[C@@H](O)[C@H](O)[C@H]3O)ccc2Cl)cc1 [sotagliflozin] | 97.2
* CN(C)CCc1c[nH]c2ccc(Cn3cncn3)cc12 [rizatriptan] | 94.8
* COc1cc2c(cc1Cc1cccc(Cl)c1F)c(=O)c(C(=O)O)cn2[C@H](CO)C(C)C [elvitegravir] | 97.9
* COc1cc2ncnc(Nc3cccc(Br)c3)c2cc1OC | 84.6

----------
Here the recorded cell viability is given for each entry.
# Tested on: U2OS
# method.summary: cell viability relative to DMSO; higher = less toxic
# cond: 72 h; 10000 nM
quantity.name: cell viability (%)

* CCCC(=O)O[C@]1(C(=O)CCl)[C@@H](C)C[C@H]2[C@@H]3CCC4=CC(=O)C=C[C@]4(C)[C@@]3(F)C(=O)C[C@@]21C [clobetasone-butyrate] | 87.9
* C=C1C[C@]23C[C@@]1(O)CC[C@H]2[C@@]12C=C[C@H](O)[C@@](C)(C(=O)O1)[C@H]2[C@@H]3C(=O)O [MD-920] | 97
* Cn1c(C#N)ccc1-c1ccc2c(c1)C(C)(C)OC(=S)N2 [tanaproget] | 94.9
* Nc1ccn([C@@H]2CS[C@H](CO)O2)c(=O)n1 [lamivudine] | 97.1
* CNc1nc(NCc2ccc(NS(C)(=O)=O)cc2Cl)cc(-c2ccccn2)n1 [TC-G-1008] | 79
* C=C1/C(=C\C=C2/CCC[C@]3(C)[C@@H]([C@H](C)CCCC(C)(C)O)CC[C@@H]23)C[C@@H](O)C[C@@H]1O [calcitriol] | 92.8
* O=C(NC[C@H]1CN(c2ccc(N3CCOCC3=O)cc2)C(=O)O1)c1ccc(Cl)s1 [Rivaroxaban (Xarelto)] | 102
* O=C(NCc1ccncc1)C12CC3CC(C1)CC(c1ccc(Cl)cc1)(C3)C2 | 93.5
* CC/C(=C(/c1ccc(OCCN(C)C)cc1)c1cccc(O)c1)c1ccccc1 [droloxifene] | 75.5
* COc1ccc(C(=O)Nc2sc3c(c2C(N)=O)CCCC3)cc1OC [TCS-359] | 105
* CN(Cc1ccccc1)C(=O)[C@H](Cc1ccc2ccccc2c1)NC(=O)[C@@H]1C[C@@H](O)CN1C(=O)c1cn(C)c2ccccc12 [FK-888] | 87.2
* CN[C@@H](C)CC1CCCCC1 [propylhexedrine] | 100
* C=C[C@]1(C)C[C@@H](OC(=O)CS[C@@H]2C[C@H]3CC[C@@H](C2)N3C)[C@]2(C)[C@H](C)CC[C@]3(CCC(=O)[C@H]32)[C@@H](C)[C@@H]1O [retapamulin] | 99.1
* O=c1[nH]c(CCl)nc2sc3c(c12)CCCC3 | 80.6
* CCCC(C)C1(CC)C(=O)NC(=O)NC1=O (configuration not stated) [pentobarbital] | 99.1
* Cn1ncc2c(N3CCOCC3)nc(-c3cccc(O)c3)nc21 | 28.9
* O=C1CC[C@@H](C(=O)N2CSC[C@H]2C(=O)O)N1 [pidotimod] | 106
